The measured values listed here are drawn from paper PMC8206078.

Assay: in vitro
Conditions: African green monkey
quantity: CC50

Can you share its CC50? I mean this compound: O=c1c(O)c(-c2cc(O)c(O)c(O)c2)oc2cc(O)cc(O)c12 [myricetin, 3,5,7,3′,4′,5′-hexahydroxyflavone]
> 200 µM

====

Assay: in vivo
Settings: male, ICR, mouse, po, 30 mg/kg, Concentration in mouse plasma
quantity: concentration at 8 h (µg/mL)
Express it in µg/mL; write the number only.

Can you share its concentration at 8 h? I mean this compound: COc1cc(O)c2c(c1)O[C@H](c1cc(O)c(O)c(O)c1)[C@@H](O)C2=O [compound 7, 7-O-methyl dihydromyricetin]
0.0101

====

Experiment: in vivo
Settings: male, ICR, mouse, po, 30 mg/kg, MRTINF_obs
quantity: MRT inf
Please state the number and follow it with the unit.

Can you share its MRT inf? I mean this compound: O=c1c(O)c(-c2cc(O)c(O)c(O)c2)oc2cc(O)cc(O)c12 [myricetin, 3,5,7,3′,4′,5′-hexahydroxyflavone]
50.4 min

====

Items are presented alongside their recorded MRT.
Experiment: in vivo
Details: male, ICR, mouse, po, 30 mg/kg
Express it in h; write the number only.

{"molecule": "COc1cc(O)c2c(c1)O[C@H](c1cc(O)c(O)c(O)c1)[C@@H](O)C2=O [compound 7, 7-O-methyl dihydromyricetin]", "unitOfMeasure": "h", "MRT": 1.89}

--- query ---
Can you share its MRT? I mean this molecule: O=c1c(O)c(-c2cc(O)c(O)c(O)c2)oc2cc(O)cc(O)c12 [myricetin, 3,5,7,3′,4′,5′-hexahydroxyflavone]
0.84

====

Test: in vivo
Conditions: male, ICR, mouse, po, 30 mg/kg, Concentration in mouse plasma, Mean
quantity: concentration at 0.5 h (ng/mL)
Express it in ng/mL; write the number only.

Can you share its concentration at 0.5 h? I mean this molecule: COc1cc(O)c2c(c1)O[C@H](c1cc(O)c(O)c(O)c1)[C@@H](O)C2=O [compound 7, 7-O-methyl dihydromyricetin]
279

====

Experiment: in vivo
Conditions: male, ICR, mouse, ip, 10 mg/kg, T1/2
quantity: half-life (h)
Express it in h; write the number only.

Can you share its half-life? I mean this molecule: O=c1c(O)c(-c2cc(O)c(O)c(O)c2)oc2cc(O)cc(O)c12 [myricetin, 3,5,7,3′,4′,5′-hexahydroxyflavone]
2.1

====

Experiment: PK study in mice
Details: male, ICR, mouse, plasma, po, 30 mg/kg, T1/2, mouse, p.o. 30 mg/kg, mean
quantity: half-life (min)
Express it in min; write the number only.

Can you share its half-life? I mean this compound: COc1cc(O)c2c(c1)O[C@H](c1cc(O)c(O)c(O)c1)[C@@H](O)C2=O [compound 7, 7-O-methyl dihydromyricetin]
104

====

Assay: in vivo
Settings: male, ICR, mouse, po, 30 mg/kg, Concentration in mouse plasma
quantity: concentration at 1 h (ng/mL)
Express it in ng/mL; write the number only.

Can you share its concentration at 1 h? I mean this compound: COc1cc(O)c2c(c1)O[C@H](c1cc(O)c(O)c(O)c1)[C@@H](O)C2=O [compound 7, 7-O-methyl dihydromyricetin]
112

====

Experiment: in vivo
Settings: male, ICR, mouse, iv, 10 mg/kg, Concentration in mouse plasma, Mean
quantity: concentration at 0.05 h
Please state the number and follow it with the unit.

Can you share its concentration at 0.05 h? I mean this compound: COc1cc(O)c2c(c1)O[C@H](c1cc(O)c(O)c(O)c1)[C@@H](O)C2=O [compound 7, 7-O-methyl dihydromyricetin]
3190 ng/mL

====

Experiment: in vivo
Settings: male, ICR, mouse, ip, 10 mg/kg, AUCINF_obs
quantity: AUC(0-inf) (µg·h/mL)
Express it in µg·h/mL; write the number only.

Can you share its AUC(0-inf)? I mean this molecule: O=c1c(O)c(-c2cc(O)c(O)c(O)c2)oc2cc(O)cc(O)c12 [myricetin, 3,5,7,3′,4′,5′-hexahydroxyflavone]
1.03

====

Test: in vivo
Conditions: male, ICR, mouse, po, 30 mg/kg, Tmax
quantity: Tmax (min)
Express it in min; write the number only.

Can you share its Tmax? I mean this compound: O=c1c(O)c(-c2cc(O)c(O)c(O)c2)oc2cc(O)cc(O)c12 [myricetin, 3,5,7,3′,4′,5′-hexahydroxyflavone]
30

====

Assay: in vivo
Conditions: male, ICR, mouse, po, 30 mg/kg
quantity: Tmax (min)
Express it in min; write the number only.

Can you share its Tmax? I mean this compound: COc1cc(O)c2c(c1)O[C@H](c1cc(O)c(O)c(O)c1)[C@@H](O)C2=O [compound 7, 7-O-methyl dihydromyricetin]
15

====

Assay: in vivo
Conditions: male, ICR, mouse, po, 30 mg/kg, Concentration in mouse plasma, Mean
quantity: concentration at 4 h (ng/mL)
Express it in ng/mL; write the number only.

Can you share its concentration at 4 h? I mean this molecule: COc1cc(O)c2c(c1)O[C@H](c1cc(O)c(O)c(O)c1)[C@@H](O)C2=O [compound 7, 7-O-methyl dihydromyricetin]
32.9

====

Experiment: in vivo
Conditions: male, ICR, mouse, po, 30 mg/kg, Concentration in mouse plasma, Mean
quantity: concentration at 1 h (ng/mL)
Express it in ng/mL; write the number only.

Can you share its concentration at 1 h? I mean this molecule: COc1cc(O)c2c(c1)O[C@H](c1cc(O)c(O)c(O)c1)[C@@H](O)C2=O [compound 7, 7-O-methyl dihydromyricetin]
118

====

Experiment: in vivo
Details: male, ICR, mouse, po, 30 mg/kg, T1/2
quantity: half-life (min)
Express it in min; write the number only.

Can you share its half-life? I mean this molecule: O=c1c(O)c(-c2cc(O)c(O)c(O)c2)oc2cc(O)cc(O)c12 [myricetin, 3,5,7,3′,4′,5′-hexahydroxyflavone]
26.4
